Ref: patent US12044680B2

This section presents sequences with their documented % peptide exchange values.
biological target: HLA-A*02:01 tetramers with exiting peptide ILKEKK(DNP)VHGV (Homo sapiens, UniProt P04439, D140Y/D185E/D98H/E176V/E277Q/G131W/G231S/I119V/I121R/I166T/I218V/L300P/L318F/N151K/N90K/P208A/P217A/Q86G/Q94H/R138H/R169H/T345S); construct: prepared as known in the art, for instance by deletion of the transmembrane domain and the cytoplasmic domain; made in house; assay: HLA-A*02:01 peptide exchange quantitation; type: binding; conditions: entering peptide 20 μM final, 4 hours; HLA-A*02:01 tetramer

The cases that follow already have their % peptide exchange on record.
| entry-sequence | endpoint-value |
| --- | --- |
| GLAVVTHGL | 91.0% |
| CSLWNGPHL | 55.2% |
| SLPPPGTRV | 86.6% |
| WMHHNMDLI | 89.2% |
| ALALEVGEL | 85.1% |

What value of measured % peptide exchange is listed for ATVQGQNLK ?
27.9%

Tell me the measured % peptide exchange of EYILSLEEL , please.
24.2%
